Hey, just so you know, these numbers are from ChEMBL document CHEMBL1143431.

target_entity: UniProt P49841
Sequence (P49841 whole entry): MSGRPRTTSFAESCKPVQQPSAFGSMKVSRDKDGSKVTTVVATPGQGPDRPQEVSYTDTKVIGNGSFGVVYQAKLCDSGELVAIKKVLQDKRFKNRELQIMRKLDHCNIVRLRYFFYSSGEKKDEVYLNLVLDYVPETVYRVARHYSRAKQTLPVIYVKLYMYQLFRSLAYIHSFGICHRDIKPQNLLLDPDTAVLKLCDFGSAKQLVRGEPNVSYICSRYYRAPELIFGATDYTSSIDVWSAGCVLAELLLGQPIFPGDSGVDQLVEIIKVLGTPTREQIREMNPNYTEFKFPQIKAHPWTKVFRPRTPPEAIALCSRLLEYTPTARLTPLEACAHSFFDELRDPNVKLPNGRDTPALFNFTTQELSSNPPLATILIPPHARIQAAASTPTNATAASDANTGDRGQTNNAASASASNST
measured_parameter: IC50 (nM)

Please review the entries below; each comes with its answer.
compound	IC50 [nM]
COc1ccc2c(-c3ccnc(NC4CC4)n3)cnn2n1	25000
CCN(CC)CCNC(=O)c1cccc(Nc2nccc(-c3cnn4ncccc34)n2)c1	20
O=[N+]([O-])c1ccc(Nc2nccc(-c3cnn4ncccc34)n2)cc1	5
O=C(O)c1ccc(Nc2nccc(-c3cnn4ncccc34)n2)cc1	50
c1cc(-c2cnn3nc(NC4CCCC4)ccc23)nc(NC2CC2)n1	25000
CN1CCN(c2ccc(Nc3nccc(-c4cnn5ncccc45)n3)cc2)CC1	200
c1cc(-c2cnn3nc(N4CCCC4)ccc23)nc(NC2CC2)n1	25000
CCN(CC)Cc1cccc(Nc2nccc(-c3cnn4ncccc34)n2)c1	79
CC(C)c1ccc(Nc2nccc(-c3cnn4ncccc34)n2)cc1 [GW805758X]	16

I. CC(C)Oc1ccc2c(-c3ccnc(Nc4ccc(N5CCN(C)CC5)cc4)n3)cnn2n1
II. c1cc(Nc2nccc(-c3cnn4ncccc34)n2)cc(-c2cocn2)c1
Incoming: Please choose the item with the lower IC50 value from this pair: I and II // respond with label for picked entry
Outgoing: II
(II: 8 nM, I: 850 nM)

----------
Observed IC50, system Cyclin-dependent kinase 2 (Homo sapiens, UniProt P24941).
measured_parameter: IC50 (nM)

1. FC(F)(F)CNc1nccc(-c2cnn3ncccc23)n1 [GW683003X]
2. O=[N+]([O-])c1ccc(Nc2nccc(-c3cnn4ncccc34)n2)cc1
3. CC(C)c1ccc(Nc2nccc(-c3cnn4ncccc34)n2)cc1 [GW805758X]
Incoming: Your job: order these 3 records by IC50, ascending. # output: labels, in the requested order
Outgoing: 2, 3, 1
(2: 3 nM, 3: 40 nM, 1: 1000 nM)

----------
Observed IC50, system Cyclin-dependent kinase 2 (Homo sapiens, UniProt P24941).
measured_parameter: IC50 (nM)

Please review the entries below; each comes with its answer.
molecule	target_entity	measured_parameter	test_result
Clc1ccc(CNc2nccc(-c3cnn4ncccc34)n2)cc1 [GW781673X]	Cyclin-dependent kinase 2 (Homo sapiens, UniProt P24941)	IC50	1000
N#Cc1cccc(Nc2nccc(-c3cnn4ncccc34)n2)c1 [GW778894X]	Cyclin-dependent kinase 2 (Homo sapiens, UniProt P24941)	IC50	2
O=[N+]([O-])c1cccc(Nc2nccc(-c3cnn4ncccc34)n2)c1	Cyclin-dependent kinase 2 (Homo sapiens, UniProt P24941)	IC50	0.3

a. CN1CCN(c2ccc(Nc3nccc(-c4cnn5ncccc45)n3)cc2)CC1
b. c1cc(Nc2nccc(-c3cnn4ncccc34)n2)cc(-c2cocn2)c1
Incoming: I need your help: which of the pair a , b has higher IC50? // respond with label for picked entry
Outgoing: a

----------
Observed IC50, system Vascular endothelial growth factor receptor 2 (Homo sapiens).
measured_parameter: IC50 (nM)

compound	measured_parameter	test_result
CCc1nn2ncccc2c1-c1ccnc(NC2CC2)n1 [GW683768X]	IC50	3200
Cc1nn2ncccc2c1-c1ccnc(Nc2ccc(N3CCN(C)CC3)cc2)n1	IC50	63

I. CCc1nn2ncccc2c1-c1ccnc(Nc2ccc(N3CCN(C)CC3)cc2)n1
II. CN1CCN(c2ccc(Nc3nccc(-c4cnn5ncccc45)n3)cc2)CC1
Incoming: I need your help: which of the pair I , II has higher IC50? // respond with label for picked entry
Outgoing: II

----------
Observed IC50, system Cyclin-dependent kinase 4 (Homo sapiens, UniProt P11802).
measured_parameter: IC50 (nM)

Please review the entries below; each comes with its answer.
molecule	test_result
O=[N+]([O-])c1ccc(Nc2nccc(-c3cnn4ncccc34)n2)cc1	8
CC(C)Oc1ccc2c(-c3ccnc(Nc4ccc(N5CCN(C)CC5)cc4)n3)cnn2n1	45
O=[N+]([O-])c1cccc(Nc2nccc(-c3cnn4ncccc34)n2)c1	0.3
NC(=O)c1ccc(Nc2nccc(-c3cnn4ncccc34)n2)cc1	160

a. N#Cc1cccc(Nc2nccc(-c3cnn4ncccc34)n2)c1 [GW778894X]
b. Oc1ccc2c(-c3ccnc(NC4CC4)n3)cnn2n1
c. c1csc(-c2ccc3c(-c4ccnc(NC5CC5)n4)cnn3n2)c1
Incoming: Put these in order: smallest IC50 first, largest last. # output: labels, in the requested order
Outgoing: a, c, b
(a: 4 nM, c: 250 nM, b: 1300 nM)

1. Clc1ccc(CNc2nccc(-c3cnn4ncccc34)n2)cc1 [GW781673X]
2. COc1ccc2c(-c3ccnc(NC4CC4)n3)cnn2n1
3. c1cc(-c2cnn3nc(NC4CCCC4)ccc23)nc(NC2CC2)n1
Incoming: Hello, I need these entries ordered by IC50, highest reading first. Thanks! # output: labels, in the requested order
Outgoing: 2, 1, 3
(2: 2000 nM, 1: 1000 nM, 3: 160 nM)

A. FC(F)(F)CNc1nccc(-c2cnn3ncccc23)n1 [GW683003X]
B. CCN(CC)CCNC(=O)c1cccc(Nc2nccc(-c3cnn4ncccc34)n2)c1
C. CC(C)Oc1ccc2c(-c3ccnc(NC4CC4)n3)cnn2n1
D. CCN(CC)Cc1cccc(Nc2nccc(-c3cnn4ncccc34)n2)c1
Incoming: Hello, I need these entries ordered by IC50, highest reading first. Thanks! # output: labels, in the requested order
Outgoing: C, A, D, B

A. c1cnn2ncc(-c3ccnc(NCCCN4CCOCC4)n3)c2c1 [GW683109X]
B. c1cc(-c2cnn3nc(N4CCOCC4)ccc23)nc(NC2CC2)n1 [GW708336X]
C. CN1CCN(c2ccc(Nc3nccc(-c4cnn5nc(-c6ccc(F)cc6)ccc45)n3)cc2)CC1
D. CCCCc1nn2ncccc2c1-c1ccnc(Nc2ccc(N3CCN(C)CC3)cc2)n1
E. CN1CCN(c2ccc(Nc3nccc(-c4cnn5ncccc45)n3)cc2)CC1
Incoming: Put these in order: smallest IC50 first, largest last. # output: labels, in the requested order
Outgoing: E, C, B, D, A
